test: In vitro metabolic stability, hepatocytes (human); type: in vitro ADME; details: human hepatocytes 1×10^6 cells/mL, 2 μM compound; read-out: Hepatocyte Stability T1/2 Human (converted)

| compound | readingUnit | half-life at 2 μM |
| --- | --- | --- |
| COCCCOc1cc2c(cc1Cl)-c1cc(=O)c(C(=O)O)cn1N(C(C)(C)C)C2 [Example 2] | h | 26.6 |
| COCCCOc1cc2c(cc1Cl)-c1cc(=O)c(C(=O)O)cn1[C@H](C1(C)CC1)C2 [Comparative Example 1] | h | 8.9 |

###

test: MT-4 cytotoxicity assay; type: cell-based; settings: human, MT-4 cells; five days incubation, Cell Titer Glo
Some compounds, each annotated with its measured CC50 at 5 days.
experimentalReadout: CC50 at 5 days

| molecularString | result |
| --- | --- |
| COCCCOc1cc2c(cc1OC)-c1cc(=O)c(C(=O)O)cn1N(C1(C(F)(F)F)CC1)C2 | > 10 µM |
| COCCCOc1cc2c(cc1OC)-c1cc(=O)c(C(=O)O)cn1N(C(C)(C)C(F)(F)F)C2 | > 10 µM |
| COCCCOc1cc2c(cc1OC)-c1cc(=O)c(C(=O)O)cn1N(C(C)(C)COC)C2 | > 10 µM |
| COCCCOc1cc2c(cc1Cl)-c1cc(=O)c(C(=O)O)cn1[C@H](C(C)(C)C)C2 | 5.7 µM |
| [2H]C([2H])([2H])OCCCOc1cc2c(cc1Cl)-c1cc(=O)c(C(=O)O)cn1N(C(C)(C)C)C2 | 9.3 µM |
| COCCCOc1cc2c(cc1Cl)-c1cc(=O)c(C(=O)O)cn1N(C1(C(F)(F)F)CCC1)C2 | 8.1 µM |
| COCCCOc1cc2c(cc1Cl)-c1cc(=O)c(C(=O)O)cn1N(CC(C)(C)C)C2 | > 10 µM |
| COCCCOc1cc2c(cc1Cl)-c1cc(=O)c(C(=O)O)cn1N(C1(C)CCC1)C2 | > 10 µM |
| COCCCOc1cc2c(cc1Cl)-c1cc(=O)c(C(=O)O)cn1N(C1(C)CC(F)(F)C1)C2 | > 10 µM |
| COCCCOc1cc2c(cc1Cl)-c1cc(=O)c(C(=O)O)cn1N(C1(C)CC1)C2 | > 10 µM |
| COCCCOc1cc2c(cc1Cl)-c1cc(=O)c(C(=O)O)cn1N(C(C)(C)CO)C2 | > 10 µM |
| COCCCOc1cc2c(cc1Cl)-c1cc(=O)c(C(=O)O)cn1N(C(C)(C)C(F)(F)F)C2 | > 10 µM |
| CCC(C)(C)N1Cc2cc(OCCCOC)c(Cl)cc2-c2cc(=O)c(C(=O)O)cn21 | > 10 µM |
| CC(C)(C)N1Cc2cc(OCCOCC(F)(F)F)c(Cl)cc2-c2cc(=O)c(C(=O)O)cn21 | 5.2 µM |
| COCCCOc1cc2c(cc1Cl)-c1cc(=O)c(C(=O)O)cn1N(C(C)(C)C)C2 | > 10 µM |
| COCCCOc1cc2c(cc1Cl)-c1cc(=O)c(C(=O)O)cn1N(C13CC(C1)C3)C2 | > 10 µM |
| COCCCOc1cc2c(cc1Cl)-c1cc(=O)c(C(=O)O)cn1N(C1(C(F)(F)F)CC1)C2 | > 10 µM |
| COCCCOc1cc2c(cc1Cl)-c1cc(=O)c(C(=O)O)cn1[C@H](C1(C)CC1)C2 | 4.2 µM |
| COCCCOc1cc2c(cc1OC)-c1cc(=O)c(C(=O)O)cn1N(C(C)(C)C)C2 | > 10 µM |
| COCCCOc1cc2c(cc1Cl)-c1cc(=O)c(C(=O)O)cn1N(C(C)(C)COC)C2 | > 10 µM |

###

experiment: In vitro metabolic stability, hepatic microsomes (human); format: in vitro ADME; conditions: pooled hepatic microsomes, pH 7.4; human hepatic microsomes 1.0 mg/mL, 1 μM compound, NADPH and UDPGA cofactors; read-out: Microsome Stability T1/2 Human
Some compounds, each annotated with its measured half-life at 1 μM.
experimentalReadout: half-life at 1 μM (h)

| molecularString | sign | numericReadout |
| --- | --- | --- |
| COCCCOc1cc2c(cc1Cl)-c1cc(=O)c(C(=O)O)cn1N(C(C)(C)C)C2 | > | 5.83 |
| COCCCOc1cc2c(cc1Cl)-c1cc(=O)c(C(=O)O)cn1[C@H](C(C)(C)C)C2 | = | 4.9 |
| COCCCOc1cc2c(cc1Cl)-c1cc(=O)c(C(=O)O)cn1[C@H](C1(C)CC1)C2 | = | 3.9 |

###

test: Pharmacokinetic analysis following intravenous administration to rats; type: in vivo; conditions: male, Sprague-Dawley; rat, intravenous infusion over 30 min, 1 mg/kg, terminal plasma half-life
Some compounds, each annotated with its measured half-life.

| compound | half-life [h] |
| --- | --- |
| COCCCOc1cc2c(cc1Cl)-c1cc(=O)c(C(=O)O)cn1[C@H](C(C)(C)C)C2 [Comparative Example 2] | 1.99 |
| COCCCOc1cc2c(cc1Cl)-c1cc(=O)c(C(=O)O)cn1N(C(C)(C)C)C2 [Example 2] | 3.34 |
| COCCCOc1cc2c(cc1Cl)-c1cc(=O)c(C(=O)O)cn1[C@H](C1(C)CC1)C2 [Comparative Example 1] | 1.62 |

###

Some compounds, each annotated with its measured half-life at 1 μM.
experiment: In vitro metabolic stability, hepatic microsomes (rat); assay type: in vitro ADME; conditions: pooled hepatic microsomes, pH 7.4; rat hepatic microsomes 1.0 mg/mL, 1 μM compound, NADPH and UDPGA cofactors; read-out: Microsome Stability T1/2 Rat

| molecularString | sign | half-life at 1 μM / h |
| --- | --- | --- |
| COCCCOc1cc2c(cc1Cl)-c1cc(=O)c(C(=O)O)cn1[C@H](C(C)(C)C)C2 | = | 3.83 |
| COCCCOc1cc2c(cc1Cl)-c1cc(=O)c(C(=O)O)cn1[C@H](C1(C)CC1)C2 | = | 3.82 |
| COCCCOc1cc2c(cc1Cl)-c1cc(=O)c(C(=O)O)cn1N(C(C)(C)C)C2 | > | 5.83 |

###

assay: In vitro metabolic stability, hepatocytes (rat); assay type: in vitro ADME; settings: rat hepatocytes 1×10^6 cells/mL, 2 μM compound; read-out: Hepatocyte Stability T1/2 Rat (converted)
experimentalReadout: half-life at 2 μM (h)

| molecule | readingUnit | sign | numericReadout |
| --- | --- | --- | --- |
| COCCCOc1cc2c(cc1Cl)-c1cc(=O)c(C(=O)O)cn1N(C(C)(C)C)C2 [Example 2] | h | > | 39.5 |
| COCCCOc1cc2c(cc1Cl)-c1cc(=O)c(C(=O)O)cn1[C@H](C1(C)CC1)C2 [Comparative Example 1] | h | = | 7 |

###

assay: MT-4 cytotoxicity assay; type: cell-based; conditions: human; five days incubation, Cell Titer Glo
experimentalReadout: CC50 at 5 days (µM)

| molecularString | numericReadout |
| --- | --- |
| COCCCOc1cc2c(cc1Cl)-c1cc(=O)c(C(=O)O)cn1N(C)C2 | 8.9 |
